- system-name: Replicase polyprotein 1ab (Severe acute respiratory syndrome coronavirus 2)
quantity-measured: pIC50
Numbers only, as −log10 of the molar value.

Guide cases for pIC50, answers given:
Cc1cc(C(=O)NCc2cscn2)ccc1C(=O)N[C@H](C)c1cc(-c2cnn(C)c2)cc(-c2ccns2)c1
8.52
Cc1cc(CNCc2cscn2)ccc1C(=O)N[C@H](C)c1cc(-c2cnn(C)c2)cc(-c2ccns2)c1
8.52
Cc1ccc(N2CCN(C)CC2)cc1C(=O)N[C@H](C)c1cc(-c2cnn(C)c2)cc(-c2cccs2)c1
8.40
Cc1ccc(N2CCN(C)CC2)cc1C(=O)N[C@H](C)c1cc(-c2cnn(C)c2)cc(-c2cc(Cl)cnc2N)c1
8.52

Value sought for every listed compound: pIC50.
1. Cc1ccc(NC(=O)[C@H]2CCCCN2)cc1C(=O)N[C@H](C)c1cc(-c2cnn(C)c2)cc(-c2cccs2)c1
2. Cc1ccc(N2CCNCC2)cc1C(=O)N[C@H](C)c1cc(-c2cnn(C)c2)cc(-c2cc(Cl)cnc2N)c1

[8.40, 8.40]
